- Tested on: IGROV-1
- testDetails: NCI tumour cell line growth inhibition, 48 h
Calls of active or inactive are those of the source. Cut-off read from the data, not from the text of the source: active = GI50 up to about 1.1 µM and inactive = higher.
Outcome codes: TRUE (active), FALSE (inactive)

molecule	group
CCCCCC1C2C(=O)NC(=O)C1C(=O)NC2=O (centres undefined)	FALSE
O=S(=O)(Nc1ccc2ccc3cccc4ccc1c2c34)c1ccccc1	FALSE
CCOP(=O)(OCC)/C(C#N)=C/c1ccco1	FALSE
CC(=O)O[C@H]1C(=O)[C@@]2(C)[C@H]([C@H](OC(=O)c3ccccc3)[C@]3(O)C[C@H](OC(=O)[C@H](O)[C@@H](NC(=O)c4ccoc4)c4ccccc4)C(C)=C1C3(C)C)[C@]1(OC(C)=O)CO[C@@H]1C[C@@H]2O	TRUE
C/C=C/COc1cc(NC(=S)c2ccoc2C)ccc1OC	FALSE
O=c1c2ccc(Br)cc2nc(-c2ccccc2)n1NC1OC(CO)C(O)C(O)C1O (centres undefined)	FALSE
Nc1ccc(Oc2ccc(C3(c4ccc(Oc5ccc(N)cc5)cc4)C4CC5CC(C4)CC3C5)cc2)cc1	FALSE
Cc1ccc(/C=C2\N=C(N3CCCC(CO)C3)NC2=O)cc1 (centres undefined)	FALSE
CN(C)CC1CCC(=C2CCCC2)C1=O (centres undefined)	FALSE

* * *

- Tested on: NCI-H522
- testDetails: NCI tumour cell line growth inhibition, 48 h
Active and inactive are the calls of the source. Cut-off read from the data, not from the text of the source: active = GI50 up to about 1.1 µM and inactive = higher.
Outcome codes: t for active, f for inactive

> print(dat)
                                    molecule  group
 1  COc1ccc2c(c1)NC1(O)c3ccccc3C(=O)C21O (configuration not stated)      f
 2            Cc1ccc2nc(-c3ccccc3)cc(=O)n2c1      f
 3               CCCCCC/C=C/C#CCCCCCCCC(=O)O      f
 4  C/C(=N/NC(N)=S)C(CN1CCOCC1)C(C1=C(O)c2ccccc2OC1)c1ccccc1 (configuration not stated)      f
 5            CCOP(=O)(OCC)/C(C#N)=C/c1ccco1      f
 6  CC(C)c1ccc(C(c2c(O)oc3ccccc3c2=O)c2c(O)oc3ccccc3c2=O)cc1      f
 7  CCOC(=O)C1C(=O)CC(O)(c2ccccc2)C(C(=O)OCC)C1c1ccc(OC)cc1 (configuration not stated)      f
 8            O=C1c2ccccc2C(Br)(Br)c2ccccc21      f
 9  COc1cc([C@@H]2c3cc4c(cc3C[C@@H]3COC(=O)C32)OCO4)cc(OC)c1O (some centres not stated)      t
10  CC1(C)C(=O)/C=C\C(=O)C(C)(C)C(=O)/C=C\C(=O)C(C)(C)C(=O)/C=C\C(=O)C(C)(C)C(=O)/C=C\C1=O      f
11  CCC(c1ccc(N(C)C)cc1)C1NC(=S)NC1=O (configuration not stated)      f
12  C/C1=C/C[C@@H](/C(C)=C/c2csc(C)n2)OC(=O)C[C@H](O)C(C)(C)C(=O)[C@H](C)[C@@H](O)[C@@H](C)CCC1 [EPOTHILONE D]      t

* * *

- Test system: DMS-114
- testDetails: NCI tumour cell line growth inhibition, 48 h
Calls of active or inactive are those of the source. Cut-off read from the data, not from the text of the source: active = GI50 up to about 1.1 µM and inactive = higher.
Outcome codes: active, inactive

> print(dat)
                                    compound     group
 1  CC(=O)OC1[C@H]2c3cc4c(cc3CN3CCC(C[C@@H]1OC(C)=O)C23)OCO4 (stereo partly drawn)  inactive
 2  CCCC(=O)OCC1OC(n2ccc(N)nc2=O)C(OC(=O)CCC)C1OC(=O)CCC (stereo not drawn)  inactive
 3  CP(=O)(CCSc1ccccc1)c1ccccc1 (stereo not drawn)  inactive
 4                    CCOC(=O)C1=C(NC)OCC1=O  inactive
 5  COc1cc([C@@H]2c3cc4c(cc3[C@@H](NC(=O)c3ccc(C#N)cc3)C3COC(=O)[C@@H]32)OCO4)cc(OC)c1O (stereo partly drawn)    active
 6  O=C(Cc1ccccc1)NN1C(=O)C(Cl)C1c1ccc(Cl)cc1 (stereo not drawn)  inactive
 7  CCCCCCCSCC1OC(n2cnc3c(N)ncnc32)C(O)C1O (stereo not drawn)  inactive
 8                         COc1ccc(NCC#N)cc1  inactive
 9  CC12CCC(C(=O)N3CC=CCC3)(OC1=O)C2(C)C (stereo not drawn)  inactive
10  O=c1c2ccc(Br)cc2nc(-c2ccccc2)n1NC1OC(CO)C(O)C(O)C1O (stereo not drawn)  inactive
11           Sc1nc(S)nc(Oc2ccc(Cl)c(Cl)c2)n1  inactive
12  O=C(Nc1ccc(Cl)c(C(F)(F)F)c1)C(=O)C(C(=O)/C=C/c1ccccc1)C1OC(=O)c2ccccc21 (stereo not drawn)  inactive
13     C/N=c1\ss/c(=N\C(=S)N(C)C)n1-c1ccccc1  inactive
14  COC1=CC2(C=CC1=O)c1cc(OC)c(OC)cc1CCN2C(=O)c1ccccc1 (stereo not drawn)  inactive
15  CCOC(=O)c1c(-c2ccccc2)oc(-c2ccccc2)c1C(=O)OCC  inactive
16  Cc1ccc2c(c1)C(c1cccc3ccccc13)OC2=O (stereo not drawn)  inactive
17                         O=C(O)C(Cl)(Cl)Cl  inactive
18  COC(=O)C1(F)C(=O)NC(=O)NC1OC (stereo not drawn)  inactive

* * *

- System: MOLT-4
- testDetails: NCI tumour cell line growth inhibition, 48 h
Calls of active or inactive are those of the source. Cut-off read from the data, not from the text of the source: active = GI50 up to about 1.1 µM and inactive = higher.
Outcome codes: active, inactive

> print(dat)
                                    molecule     group
 1         Cc1[nH]c2ncn(N)c(=N)c2c1Cc1ccccc1  inactive
 2  COC(=O)[C@@H]1CN(C(=O)CCc2ccccc2)C(=O)N1C(=O)OCc1ccccc1  inactive
 3   Nc1nc(O)c2ncn([C@H]3CC[C@@H](CO)O3)c2n1  inactive
 4                          CNc1ncnc2c1nnn2C  inactive
 5  CC1(C)O[C@H]2OC(CO)C(N=[N+]=[N-])[C@H]2O1 (some centres undefined)  inactive
 6  CC(C)[N+]([O-])(CCCNc1c2ccccc2nc2cccc([N+](=O)[O-])c12)C(C)C    active
 7  Cc1ccc(C2c3c(n(C)c(=O)n(C)c3=O)OC(N(C)C)(N(C)C)C2(F)F)cc1 (centres undefined)  inactive
 8  COc1ccc(-c2cc(O)c3cc(OC)c(OC)cc3n2)cc1OC  inactive
 9  CCOc1cc(/C=C2/C(C)=NN(c3cccc(Cl)c3)/C2=N/c2nc3ccccc3s2)ccc1O  inactive
10  c1ccc(N2CCN(CCN3CCc4c([nH]c5ccccc45)C3c3cccnc3)CC2)cc1 (centres undefined)  inactive
11  Cn1c2ccccc2c(=NNc2cccc(C(=O)O)c2)c2ccccc21  inactive
12  COC1(Cc2ccccc2)C(=O)c2ccccc2N1C(C)=O (centres undefined)  inactive
13  CN(C)CC1CCC(=C2CCCC2)C1=O (centres undefined)  inactive
14  CC(=O)OC(OC(C)=O)c1ccc2ccc3cccc4ccc1c2c34  inactive

* * *

- Tested on: SN12C
- testDetails: NCI tumour cell line growth inhibition, 48 h
Activity calls are given as the source filed them. Rule as the data show it: active = GI50 up to about 1.1 µM and inactive = higher.
GI50 by entry:
recordedMetric: GI50

> print(dat)
                                   molecule        reportedvalue
1  COC(=O)c1ccc(/N=N/N(C)COc2ccc(Br)cc2)cc1   68.5 µM (inactive)
2  O=c1c2ccc(Br)cc2nc(-c2ccccc2)n1NC1OC(CO)C(O)C(O)C1O (stereo unspecified)  > 100 µM (inactive)
3  CC(=O)C(C(=N)C#N)C(=O)Nc1ccccc1 (stereo unspecified)  > 100 µM (inactive)
4  C=CCCCCCCCCCOC1C=CC(O)C(CO)O1 (stereo unspecified)   49.5 µM (inactive)
5                         COc1ccc(NCC#N)cc1  > 100 µM (inactive)
6  COc1ccc(-c2cc(=O)c3c(O)c(OC)c(OC)c(OC)c3o2)cc1OC [5-DEMETHYLNOBILETIN]  > 100 µM (inactive)

* * *

GI50 by entry:
- Tested on: K562
- testDetails: NCI tumour cell line growth inhibition, 48 h
The source made the active and inactive calls. Rule as the data show it: active = GI50 up to about 1.1 µM and inactive = higher.
recordedMetric: GI50

> print(dat)
                                    molecule  targetortestsystem        reportedvalue
 1           Sc1nc(S)nc(Oc2ccc(Cl)c(Cl)c2)n1                K562   16.5 µM (inactive)
 2  CN(C)CC1CCC(=C2CCCC2)C1=O (configuration not stated)                K562   2.86 µM (inactive)
 3  CCCCCC(=O)c1ccc2[nH]c3c(C)cc([N+](=O)[O-])c(C)c3c2c1                K562   25.4 µM (inactive)
 4  CC(=O)O[C@H]1[C@@H](N2CCN(C)CC2)C[C@H]2[C@@H]3CC=C4C[C@@H](N5CCCC5)CC[C@]4(C)[C@H]3CC[C@@]21C                K562   11.2 µM (inactive)
 5  COc1ccc(/N=C2\S/C(=N\C(=N\c3ccccc3)SCc3ccccc3)N(c3ccccc3)\C2=N/c2ccc(OC)cc2)cc1                K562  > 100 µM (inactive)
 6  CCOC(=O)C1C(=O)CC(O)(c2ccccc2)C(C(=O)OCC)C1c1ccc(OC)cc1 (configuration not stated)                K562   5.27 µM (inactive)
 7  [O-]c1c2c(nn1-c1ccc(Cl)cc1)c1ccccc1c[n+]2Cc1ccccc1                K562  > 100 µM (inactive)
 8            CCOP(=O)(OCC)/C(C#N)=C/c1ccco1                K562  > 100 µM (inactive)
 9           NC(=O)NC(=O)c1ccc(NC(=O)CBr)cc1                K562    0.705 µM (active)
10        CN(C)CCCN1c2ccccc2C(C)(C)c2ccccc21                K562   13.3 µM (inactive)
11  CC(C)(CNC(=O)/C(Cl)=C(/Cl)C(=O)O)CNC(=O)/C(Cl)=C(/Cl)C(=O)O                K562   40.1 µM (inactive)
12  CCOc1ccc2c(c1)/C(=C(\C(Cl)=C(Cl)Cl)[N+](=O)[O-])N2                K562   51.6 µM (inactive)

Provenance of the data: ChEMBL document CHEMBL1201862
